src = patent US20220125947A1

system under test: T1, T cell receptor (TCR) Vγ9 (TRGV9) (human, UniProt Q99603 21-122)
T1 sequence (looked up): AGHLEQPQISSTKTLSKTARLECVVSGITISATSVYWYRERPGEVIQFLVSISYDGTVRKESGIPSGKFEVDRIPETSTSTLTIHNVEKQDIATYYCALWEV
test description: cell-based or functional assay
Below, each entry is listed with its recorded Vg9 T cell %, flow staining.
Field format: number, assumed %, no unit text.

Recorded results for 3 binders are shown here.
Q. Tell me the measured Vg9 T cell %, flow staining of VG9B121 (antibody, human IgG1, kappa, V domains shown) VH: EVQLVESGGGLVKPGGSLRLSCVASGFTFSDYAMDWVRQAPGKGLDWISSISSTSNYIFYADSVKGRFTISRDNAKNSLYLQMNSLRVEDSAVYYCANSYNWNYGGAFDIWGQGTMVTVSS VL: DIQMTQSPGTLSSSPGERATLSCRASQSVSSSYFAWYQQKPGRAPRLLIYGASSRATGIPDRFSGSGSGTDFTLTISRLEPEDFAVYFCQQYGRSPLTFGGGTKVEIKR , please.
A. 16.1

Q. I'd like to know its Vg9 T cell %, flow staining. The binder in question is VG9B80 (antibody, human IgG1, kappa, V domains shown) VH: EVQLVQSGGGLVKSGGSLRLSCAASGFTFSTYSMNWVRQAPGKGLEWVSSISSSSSYIFYADSVKGRIIISRDNAKNSLYLQMNSVRADDTAVYYCAKDGELGVFDYWGQGTLVTVSS VL: EIVLTQSPGTLSLSAGERATLSCRASQSISSSYLAWYQQKPGQAPRVLIYGPSGRATGIPDRFRGSGSGTDFTLTISRLEPEDFAVYYCQQFGRSPLTFGGGTKVEIKR
A. 5.2

Q. So what's the measured Vg9 T cell %, flow staining for this one? VG9B46 (antibody, human IgG1, kappa, V domains shown) VH: EVQLVESGGGLVKPGGSLRLSCEASGFTFSINSMNWVRQAPGKGLEWVSSISSTSDYIFNADSVKGRFTISRDNAKNSLYLQMNSLRAEDTAVYYCVRDDVFGAFDIWGQGTMVTVSS VL: EIVLTQSPGTLSLSPGERATLSCRTSQSVSRSYLGWYQQKPGQPPRLLIFGSSSRATGIPDRFSGSGSGTDFTLTISRLEPEDFAVYYCQQYSRSPLTFGGGTKVDIKR
A. 4.4

API: the following record is the query input.
Q. Give the measured Vg9 T cell %, flow staining of VG9B195 (antibody, human IgG1, lambda, V domains shown) VH: EVQLVESGGGLVKPGGSLRLSCAASGFTFSPYTMNWVRQAPGKGLEWVSSISSSSSYMYYADSVKGRFTISRDNAKNSLYLQMNSLRAEDTAVYYCARDGDLVGPTYYFDYWGQGTLVTVSS VL: SYELMQPPSVSVSPGQTASITCSGDKLGDKYACWYQQKPGQSPVLVIYQHNKRPSGIPERFSGSNSGKTATLTISGTQAMDEADYYCQAWDSTTVVFGGGTKLTVLG .
A. 3.7
